Each recorded value in this set is attributed to patent US20240408093A1.

Target: KRAS G12C (Homo sapiens, UniProt P01116, G12C)
Sequence (P01116 1-188 isoform P01116-2 G12C): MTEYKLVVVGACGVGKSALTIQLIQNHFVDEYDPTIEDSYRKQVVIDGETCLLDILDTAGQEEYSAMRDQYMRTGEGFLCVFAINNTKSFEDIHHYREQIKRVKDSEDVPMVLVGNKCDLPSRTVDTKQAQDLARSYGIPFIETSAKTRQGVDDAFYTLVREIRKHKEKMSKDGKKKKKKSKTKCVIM
Assay: KRAS G12C cellular target engagement assay (SW1573 cells)
Conditions: 17 hours, read-out: TE50 (the source's name)
pEC50: −log10 of the molar value.
Measured pEC50, listed per entry for reference.

[[record]]
compound = "C=C(COc1cc(NC(=O)NCc2ccc3c(c2F)CN(C2CCC(=O)NC2=O)C3=O)cc(C(F)(F)F)c1)C(=O)N1CCN(c2nc(OC[C@@H]3CCCN3C)nc3c2CCN(c2cccc4cccc(Cl)c24)C3)C[C@@H]1CC#N (some centres unmarked)"
valuekind = "pEC50"
measuredresult = "> 6.60"


Prompt line: I have this compound here, C=C(COc1cc(F)c(F)cc1NC(=O)NCc1ccc2c(c1)CN(C1CCC(=O)NC1=O)C2=O)C(=O)N1CCN(c2nc(OC[C@@H]3CCCN3C)nc3c2CCN(c2cccc4cccc(Cl)c24)C3)C[C@@H]1CC#N (some centres unmarked) , and I need its recorded pEC50.
Response line: 5.30 to 6.60

* * *

Biological target: CCNK (Homo sapiens, UniProt O75909+Q16531+Q9NYV4)
Construct: expressed in transfected cells; host or cells: HEK293 LgBiT cells (Promega), lentiviral transduction, puromycin selection
Sequence (O75909 whole entry, species assumed): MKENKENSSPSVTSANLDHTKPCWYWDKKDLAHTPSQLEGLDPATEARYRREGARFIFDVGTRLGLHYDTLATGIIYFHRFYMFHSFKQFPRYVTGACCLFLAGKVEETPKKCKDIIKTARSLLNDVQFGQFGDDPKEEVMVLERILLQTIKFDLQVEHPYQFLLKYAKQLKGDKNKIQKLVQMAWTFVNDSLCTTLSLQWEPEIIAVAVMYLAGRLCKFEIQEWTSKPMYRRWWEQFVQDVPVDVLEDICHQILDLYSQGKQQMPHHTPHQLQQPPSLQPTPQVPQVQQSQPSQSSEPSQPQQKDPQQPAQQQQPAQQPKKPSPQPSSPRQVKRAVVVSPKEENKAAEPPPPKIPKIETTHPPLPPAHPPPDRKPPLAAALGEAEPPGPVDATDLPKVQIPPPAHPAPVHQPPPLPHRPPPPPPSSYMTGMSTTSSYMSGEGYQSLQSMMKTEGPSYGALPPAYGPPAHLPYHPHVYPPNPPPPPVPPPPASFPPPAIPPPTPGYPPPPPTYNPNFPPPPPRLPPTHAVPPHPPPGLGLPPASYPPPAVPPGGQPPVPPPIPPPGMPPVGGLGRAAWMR
Sequence (Q9NYV4 whole entry, species assumed): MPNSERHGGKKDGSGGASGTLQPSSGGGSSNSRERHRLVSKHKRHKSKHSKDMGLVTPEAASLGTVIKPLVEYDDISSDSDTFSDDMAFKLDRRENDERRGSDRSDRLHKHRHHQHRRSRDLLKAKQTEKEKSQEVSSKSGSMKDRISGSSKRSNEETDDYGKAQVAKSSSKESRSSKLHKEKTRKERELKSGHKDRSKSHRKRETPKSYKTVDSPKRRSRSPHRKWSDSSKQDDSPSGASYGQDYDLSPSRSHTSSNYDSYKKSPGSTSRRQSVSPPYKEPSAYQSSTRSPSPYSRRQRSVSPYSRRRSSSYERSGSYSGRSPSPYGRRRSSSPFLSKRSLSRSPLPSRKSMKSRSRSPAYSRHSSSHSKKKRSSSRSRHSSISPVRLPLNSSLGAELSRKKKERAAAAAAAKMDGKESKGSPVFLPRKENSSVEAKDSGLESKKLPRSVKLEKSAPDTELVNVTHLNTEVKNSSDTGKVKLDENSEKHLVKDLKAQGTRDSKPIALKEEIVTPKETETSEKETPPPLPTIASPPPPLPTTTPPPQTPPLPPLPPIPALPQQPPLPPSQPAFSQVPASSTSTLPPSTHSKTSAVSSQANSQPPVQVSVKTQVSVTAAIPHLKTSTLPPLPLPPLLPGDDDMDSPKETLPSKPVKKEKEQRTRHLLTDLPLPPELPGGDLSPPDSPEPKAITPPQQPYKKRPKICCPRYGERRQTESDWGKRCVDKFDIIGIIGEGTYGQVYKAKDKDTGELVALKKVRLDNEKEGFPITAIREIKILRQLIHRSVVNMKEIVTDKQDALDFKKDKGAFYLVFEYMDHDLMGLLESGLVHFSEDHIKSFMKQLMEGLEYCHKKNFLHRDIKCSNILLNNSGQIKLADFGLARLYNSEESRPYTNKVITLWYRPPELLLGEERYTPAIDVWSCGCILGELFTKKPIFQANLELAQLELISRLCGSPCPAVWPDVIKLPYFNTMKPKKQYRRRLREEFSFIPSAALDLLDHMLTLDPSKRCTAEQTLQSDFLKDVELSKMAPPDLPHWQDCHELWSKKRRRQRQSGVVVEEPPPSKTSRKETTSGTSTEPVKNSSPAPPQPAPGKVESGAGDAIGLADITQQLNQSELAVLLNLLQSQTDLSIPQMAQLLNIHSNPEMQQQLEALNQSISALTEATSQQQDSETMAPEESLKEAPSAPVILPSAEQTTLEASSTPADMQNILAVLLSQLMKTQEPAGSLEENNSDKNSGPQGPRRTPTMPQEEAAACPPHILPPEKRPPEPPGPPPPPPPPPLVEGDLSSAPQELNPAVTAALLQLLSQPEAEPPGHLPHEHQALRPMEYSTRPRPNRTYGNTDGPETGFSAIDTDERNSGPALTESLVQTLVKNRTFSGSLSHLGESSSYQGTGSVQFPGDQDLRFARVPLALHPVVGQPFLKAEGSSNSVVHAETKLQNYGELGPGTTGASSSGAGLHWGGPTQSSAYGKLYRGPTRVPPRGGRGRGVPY
Sequence (Q16531 whole entry, species assumed): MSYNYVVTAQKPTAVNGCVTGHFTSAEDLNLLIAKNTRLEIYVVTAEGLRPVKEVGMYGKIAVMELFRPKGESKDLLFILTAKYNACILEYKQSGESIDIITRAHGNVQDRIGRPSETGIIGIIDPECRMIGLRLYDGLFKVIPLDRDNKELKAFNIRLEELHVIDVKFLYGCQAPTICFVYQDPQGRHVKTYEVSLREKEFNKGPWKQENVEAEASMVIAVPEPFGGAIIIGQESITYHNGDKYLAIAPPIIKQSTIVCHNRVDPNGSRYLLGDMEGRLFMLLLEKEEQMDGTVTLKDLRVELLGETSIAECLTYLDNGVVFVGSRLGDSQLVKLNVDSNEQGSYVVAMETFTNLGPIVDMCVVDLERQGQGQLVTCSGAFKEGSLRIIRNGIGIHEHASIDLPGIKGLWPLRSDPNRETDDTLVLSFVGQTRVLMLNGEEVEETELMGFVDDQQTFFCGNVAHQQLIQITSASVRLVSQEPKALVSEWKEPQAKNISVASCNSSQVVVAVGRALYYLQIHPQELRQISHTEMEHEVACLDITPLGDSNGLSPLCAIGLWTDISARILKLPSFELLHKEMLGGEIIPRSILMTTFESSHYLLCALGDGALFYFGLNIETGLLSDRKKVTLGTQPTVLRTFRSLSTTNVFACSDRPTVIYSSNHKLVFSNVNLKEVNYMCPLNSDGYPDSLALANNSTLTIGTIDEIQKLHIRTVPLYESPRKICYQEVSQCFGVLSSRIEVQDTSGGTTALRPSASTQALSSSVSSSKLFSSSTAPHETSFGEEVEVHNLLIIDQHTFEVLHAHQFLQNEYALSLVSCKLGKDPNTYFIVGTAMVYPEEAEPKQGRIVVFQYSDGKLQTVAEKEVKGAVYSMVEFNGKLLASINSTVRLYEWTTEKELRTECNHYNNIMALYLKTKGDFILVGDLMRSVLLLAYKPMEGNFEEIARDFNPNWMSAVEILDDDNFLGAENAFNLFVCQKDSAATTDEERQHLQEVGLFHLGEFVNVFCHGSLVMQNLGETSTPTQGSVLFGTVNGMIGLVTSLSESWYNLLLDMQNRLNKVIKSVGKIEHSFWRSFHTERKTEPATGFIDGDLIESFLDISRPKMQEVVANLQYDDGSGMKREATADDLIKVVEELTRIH
Assay: CCNK HiBiT degradation assay
Assay type: cell-based
Settings: HEK293 LgBiT/CCNK HiBiT cells, 6 hours
valueKind: DC50

[[record]]
molecule = "C=C(COC(=O)n1c(CNc2nc(N3CCNCC3)nc3c(Br)cnn23)nc2cc(C)ccc21)C(=O)N1C[C@H](COc2nc(Nc3cnn(C)c3)nc3[nH]cc(Cl)c23)[C@@H](OC)C1 [Compound V-4]"
valuekind = "DC50"
measuredresult = "< 250 nM"

[[record]]
molecule = "C=C(COC(=O)N1CCN(c2nc(NCc3nc4cc(C)ccc4[nH]3)n3ncc(Br)c3n2)CC1)C(=O)N1C[C@H](COc2nc(Nc3cnn(C)c3)nc3[nH]cc(Cl)c23)[C@@H](OC)C1 [II-185]"
valuekind = "DC50"
measuredresult = "< 250 nM"

[[record]]
molecule = "C=C(COC(=O)N1CCN(c2nc(NCc3nc4cc(C)ccc4[nH]3)n3ncc(Br)c3n2)CC1)C(=O)N[C@@H]1CN(c2nc(Nc3cn(C)nc3OC)c3ncn(C)c3n2)C[C@H]1F [II-184]"
valuekind = "DC50"
measuredresult = "< 250 nM"

[[record]]
molecule = "C=C(COc1cc(-c2ccccn2)ccc1CNc1nc(N[C@H](CC)CO)nc2c1ncn2C(C)C)C(=O)N1CCN(c2nc(OC[C@@H]3CCCN3C)nc3c2CCN(c2cccc4cccc(Cl)c24)C3)C[C@@H]1CC#N [II-186]"
valuekind = "DC50"
measuredresult = "250 to 5000 nM"

[[record]]
molecule = "C=C(CN1CCN(c2nc(NCc3nc4cc(C)ccc4[nH]3)n3ncc(Br)c3n2)CC1)C(=O)N1CCN(c2nc(OC[C@@H]3CCCN3C)nc3c2CCN(c2cccc4cccc(Cl)c24)C3)C[C@@H]1CC#N [II-190]"
valuekind = "DC50"
measuredresult = "< 250 nM"


Could you now look at the following molecule, please?
Prompt line: What measured DC50 goes with C=C(CN1CCN(c2nc(NCc3nc4cc(C)ccc4[nH]3)n3ncc(Br)c3n2)CC1)C(=O)Nc1cc(Nc2nccc(-c3cn(C)c4ccccc34)n2)c(OC)cc1N(C)CCN(C)C [II-188] ?
Response line: < 250 nM
